Data credit: patent US20100331269A1

- System: B16-F1 mouse melanoma cells
- experimental-protocol: Cytotoxicity, resazurin metabolism assay, B16-F1
- Assay type: cell-based
- condition-set: 48 h, mean ± SD
experimental-readout: pIC50
Scale for pIC50: -log10 of concentration given in mol/L; no unit attached.

Example results:
>>> measured("C=C(C)C1CCC2(CO)CCC3(C)C(CCC4C5(C)CCC(OC6OC(C)C(O)C(O)C6O)C(C)(C)C5CCC43C)C12 [Compound 13, 3-O-α-L-Rhamnopyranoside of Betulin]")
4.74
>>> measured("C=C(C)[C@@H]1CC[C@]2(C(=O)O)CC[C@]3(C)[C@H](CC[C@@H]4[C@@]5(C)CC[C@H](O[C@@H]6O[C@@H](C)[C@H](O)[C@@H](O)[C@H]6O)C(C)(C)[C@@H]5CC[C@]43C)[C@@H]12 [Compound 22]")
5.41

# value of pIC50, B16-F1 mouse melanoma cells, item C=C(C)[C@@H]1CC[C@]2(C(=O)OC)CC[C@]3(C)[C@H](CC[C@@H]4[C@@]5(C)CC[C@H](O[C@@H]6O[C@@H](C)[C@H](O)[C@@H](O)[C@H]6O)C(C)(C)[C@@H]5CC[C@]43C)[C@@H]12 [Compound 19] = 4.26

----------
- Tested on: B16-F1 mouse melanoma cells
- experimental-protocol: Cytotoxicity, resazurin metabolism assay, B16-F1
- Format: cell-based
- condition-set: 48 h, mean ± SD
Documented IC50 across a set of compounds
Give the value, in units of µM, as a plain number.

Worked examples, 2 compounds total:
>>> measured("C=C(C)[C@@H]1CC[C@]2(C)CC[C@]3(C)[C@H](CC[C@@H]4[C@@]5(C)CC[C@H](O[C@H]6OC[C@@H](O)[C@@H](O)[C@@H]6O)C(C)(C)[C@@H]5CC[C@]43C)[C@@H]12 [Compound 11, 3-O-α-D-Arabinopyranoside of Lupeol]")
27
>>> measured("C=C(C)[C@@H]1CC[C@]2(C(=O)OC)CC[C@]3(C)[C@H](CC[C@@H]4[C@@]5(C)CC[C@H](O[C@H]6OC[C@@H](O)[C@@H](O)[C@@H]6O)C(C)(C)[C@@H]5CC[C@]43C)[C@@H]12")
13.3

Attention now turns to another entry.
According to the records, this compound C=C(C)[C@@H]1CC[C@]2(C(=O)O)CC[C@]3(C)[C@H](CC[C@@H]4[C@@]5(C)CC[C@H](O[C@@H]6O[C@H](CO)[C@@H](O)[C@H](O)[C@H]6O)C(C)(C)[C@@H]5CC[C@]43C)[C@@H]12 displays IC50 of 49

----------
The following compounds are shown together with reported IC50 values.
- Test system: U-251 human glioma cells
- experimental-protocol: Cytotoxicity, resazurin metabolism assay, U-251
- Type: cell-based
- condition-set: mean ± SD
Unit µM implied. Number only.

>>> measured("CC1(C)CC[C@]23CC[C@]4(C)[C@H](CC[C@@H]5[C@@]6(C)CC[C@H](O[C@@H]7O[C@H](CO)[C@H](O)[C@H](O)[C@H]7O)C(C)(C)[C@@H]6CC[C@]54C)[C@H]2[C@H]1OC3 [Compound 36, 3-O-β-D-Galactopyranoside of Allobetulin]")
53
>>> measured("C=C(C)[C@@H]1CC[C@]2(C(=O)O)CC[C@]3(C)[C@H](CC[C@@H]4[C@@]5(C)CC[C@H](O[C@H]6OC[C@@H](O)[C@@H](O)[C@@H]6O)C(C)(C)[C@@H]5CC[C@]43C)[C@@H]12")
70
>>> measured("C=C(C)[C@@H]1CC[C@]2(C)CC[C@]3(C)[C@H](CC[C@@H]4[C@@]5(C)CC[C@H](O[C@@H]6O[C@H](CO)[C@@H](O)[C@H](O)[C@H]6O)C(C)(C)[C@@H]5CC[C@]43C)[C@@H]12 [Compound 9, 3-O-6-D-Glucopyranoside of lupeol]")
17.9
>>> measured("C=C(C)C1CCC2(CO)CCC3(C)C(CCC4C5(C)CCC(OC6OC(CO)C(O)C(O)C6O)C(C)(C)C5CCC43C)C12 [Compound 26, 3-O-β-D-Mannopyranoside of Betulin]")
8.3

So for C=C(C)C1CCC2(CO)CCC3(C)C(CCC4C5(C)CCC(OC6OCC(O)C(O)C6O)C(C)(C)C5CCC43C)C12 [Compound 14, 3-O-α-D-Arabinopyranoside of Betulin] , the logged IC50 turned out to be 40

Record C=C(C)[C@@H]1CC[C@]2(C)CC[C@]3(C)[C@H](CC[C@@H]4[C@@]5(C)CC[C@H](O[C@H]6OC[C@@H](O)[C@@H](O)[C@@H]6O)C(C)(C)[C@@H]5CC[C@]43C)[C@@H]12 [Compound 11, 3-O-α-D-Arabinopyranoside of Lupeol] . Reported IC50: 10.1
